pKi listing for selected molecules.
Biological target: PSD-95 PDZ3 (Homo sapiens)
Construct: made in house; host or cells: E. coli One Shot BL21 Star (DE3)
Sequence (P78352 309-401): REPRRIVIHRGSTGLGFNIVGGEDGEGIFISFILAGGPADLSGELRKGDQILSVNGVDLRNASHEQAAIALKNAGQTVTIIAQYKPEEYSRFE
Assay: FP competition assay, PSD-95 PDZ3 (probe Cy5-CRIPT)
Type: binding
Details: read-out: K i PDZ3
Peptide text beside a SMILES is read from it.
In simple prose, pKi is minus the logarithm base ten of a concentration in moles per litre.

In: Which measured pKi value corresponds to CC[C@H](C)[C@H](NC(=O)[C@H](CCCNC(=N)N)NC(=O)[C@H](CCSC)NC(=O)[C@@H](NC(=O)[C@H](CO)NC(=O)[C@H](CO)NC(=O)[C@H](CCCCN)NC(=O)[C@H](CCCNC(=N)N)NC(=O)[C@H](CC(=O)O)NC(=O)[C@@H](N)CC(=O)O)[C@@H](C)O)C(=O)N[C@@H](CO)C(=O)N[C@@H](Cc1ccc(O)cc1)C(=O)N[C@@H](CC(C)C)C(=O)O [SSTR3] (H-DDRKSSTMRISYL-OH) ?
Out: 3.55

In: Which measured pKi value corresponds to CC[C@H](C)[C@H](NC(=O)[C@H](CCCNC(=N)N)NC(=O)[C@H](CCC(=O)O)NC(=O)[C@H](CO)NC(=O)[C@@H](NC(=O)[C@@H](NC(=O)[C@H](CO)NC(=O)[C@H](CCCNC(=N)N)NC(=O)[C@H](CC(=O)O)NC(=O)[C@H](CC(=O)O)NC(=O)[C@@H](N)Cc1ccc(O)cc1)C(C)C)C(C)C)C(=O)N[C@@H](CO)C(=O)N[C@@H](CO)C(=O)N[C@H](C(=O)O)C(C)C [5-HTR2C] (H-YDDRSVVSERISSV-OH) ?
Out: 3.43
